Reference source for all entries: paper PMC8605023

Reported values: Ki for NTF2 domain of G3BP1 (Homo sapiens), one per item.
Peptide text beside a SMILES is read from it.
Numbers only, in µM.

1) CC(=O)N[C@@H](CCC(=O)O)C(=O)N[C@@H](CO)C(=O)N[C@@H](CC(C)C)C(=O)N1CCC[C@H]1C(=O)N[C@@H](Cc1ccccc1)C(=O)N[C@@H](CO)C(=O)N[C@@H](Cc1ccccc1)C(=O)NCC(=O)N[C@H](C(=O)N[C@@H](CC(C)C)C(=O)N[C@@H](CO)C(=O)N[C@@H](CO)C(=O)N[C@@H](Cc1c[nH]c2ccccc12)C(=O)N[C@@H](CCC(=O)O)C(=O)N[C@@H](CC(C)C)C(=O)N[C@@H](CCC(=O)O)C(=O)O)[C@@H](C)O [DDIT3 4-19 Human] (Ac-ESLPFSFGTLSSWELE-OH) ... 14

Read the next record carefully.
Form entry - test system: NTF2 domain of G3BP1 (Homo sapiens); read-out: Ki; molecule: CC(=O)N1CCC[C@H]1C(=O)N[C@@H](CO)C(=O)N[C@@H](CCCCN)C(=O)N[C@@H](CC(C)C)C(=O)N1CCC[C@H]1C(=O)N[C@H](C(=O)N[C@@H](Cc1ccccc1)C(=O)NCC(=O)N[C@@H](C)C(=O)N1CCC[C@H]1C(=O)N[C@@H](CCC(=O)O)C(=O)N[C@@H](CCC(N)=O)C(=O)N[C@@H](CC(C)C)C(=O)N[C@H](C(=O)N[C@@H](CC(=O)O)C(=O)N[C@@H](Cc1ccc(O)cc1)C(N)=O)C(C)C)[C@@H](C)O [TRIM25 400-414 Human] (Ac-PSKLPTFGAPEQLVDY-NH2) 46

###

Biological target: NTF2 domain of G3BP2 (Homo sapiens)
Sequence (Q9UN86 11-133 limits assumed): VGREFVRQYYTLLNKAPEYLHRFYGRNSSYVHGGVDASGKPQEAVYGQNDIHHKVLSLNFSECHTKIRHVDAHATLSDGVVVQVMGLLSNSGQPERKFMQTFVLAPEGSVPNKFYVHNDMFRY
Peptide text beside a SMILES is read from it.
readout: Kd (µM)
One number for each entry, in µM.

1) CC(=O)N[C@@H](CC(N)=O)C(=O)N[C@@H](CC(C)C)C(=O)N[C@@H](CCC(N)=O)C(=O)N[C@@H](Cc1ccccc1)C(=O)NCC(=O)N[C@@H](C)C(=O)N[C@@H](CC(C)C)C(=O)N[C@@H](CCC(N)=O)C(=O)N[C@@H](Cc1ccccc1)C(=O)NCC(=O)N[C@@H](CO)C(=O)N[C@@H](CCC(=O)O)C(=O)N1CCC[C@H]1C(=O)N[C@H](C(=O)N[C@@H](Cc1ccc(O)cc1)C(=O)O)C(C)C [UBAP2L 515-528 Human] (Ac-NLQFGALQFGSEPVY-OH) ... 34
2) CC[C@H](C)[C@H](NC(=O)[C@@H]1CCCN1C(=O)[C@@H]1CCCN1C(=O)[C@@H](NC(=O)[C@@H]1CCCN1C(C)=O)C(C)C)C(=O)N[C@@H](CCC(=O)O)C(=O)N[C@@H](Cc1ccccc1)C(=O)NCC(=O)N[C@H](C(=O)N[C@@H](CO)C(=O)N1CCC[C@H]1C(=O)N[C@@H](CCCCN)C(=O)N[C@@H](CC(=O)O)C(=O)N[C@@H](CO)C(=O)N[C@@H](CC(=O)O)C(=O)N[C@@H](Cc1ccc(O)cc1)C(N)=O)C(C)C [PRRC2B 1780-1794 Human] (Ac-PVPPIEFGVSPKDSDY-NH2) ... 10

// lookup Kd for CC[C@H](C)[C@H](NC(=O)[C@H](Cc1ccccc1)NC(=O)[C@H](CC(N)=O)NC(=O)[C@H](Cc1ccc(O)cc1)NC(=O)[C@@H]1CCCN1C(=O)CNC(=O)[C@H](CCC(N)=O)NC(=O)[C@H](CCSC)NC(=O)[C@H](CCC(N)=O)NC(=O)[C@H](C)NC(C)=O)C(=O)N[C@@H](CCC(N)=O)C(=O)N[C@@H](CC(=O)O)C(=O)N[C@@H](CO)C(=O)N[C@@H](CCSC)C(=O)N[C@@H](CC(C)C)C(=O)N[C@@H](CC(=O)O)C(N)=O [CAPRIN1 364-379 Human] (Ac-AQMQGPYNFIQDSMLD-NH2) 174
